- Study Target: Amine oxidase [flavin-containing] A (Homo sapiens, UniProt P21397)
- Sequence (P21397 whole entry): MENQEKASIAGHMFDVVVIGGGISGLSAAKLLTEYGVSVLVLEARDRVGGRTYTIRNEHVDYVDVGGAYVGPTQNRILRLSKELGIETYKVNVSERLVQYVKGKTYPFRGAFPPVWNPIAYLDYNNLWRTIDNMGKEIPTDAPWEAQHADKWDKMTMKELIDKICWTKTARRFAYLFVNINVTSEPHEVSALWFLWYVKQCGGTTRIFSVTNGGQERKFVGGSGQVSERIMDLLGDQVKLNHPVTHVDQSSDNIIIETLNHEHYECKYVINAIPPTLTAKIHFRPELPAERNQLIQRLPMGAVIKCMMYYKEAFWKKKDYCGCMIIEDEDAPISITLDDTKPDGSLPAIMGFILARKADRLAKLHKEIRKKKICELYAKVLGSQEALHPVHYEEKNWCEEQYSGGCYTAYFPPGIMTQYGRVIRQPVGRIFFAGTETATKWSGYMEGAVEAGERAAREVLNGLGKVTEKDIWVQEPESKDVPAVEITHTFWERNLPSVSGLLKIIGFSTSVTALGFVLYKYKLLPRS
- Assay Procedure: Inhibition of human recombinant MAOA expressed in BTI-TN-5B1-4 cells using p-tyramine substrate assessed as reduction in H2O2 production at 100 uM
- Format: cell-based
- Applied Conditions: bti-tn-5b1-4, 100 µM
Measured Attribute: inhibition (INH)

Cc1ccc2oc(=O)c(-c3cccc(N)c3)cc2c1
Not Active
Cc1ccc2oc(=O)c(-c3ccccc3[N+](=O)[O-])cc2c1
Not Active
Cc1ccc2oc(=O)c(-c3ccc(N)cc3)cc2c1
Not Active
Cc1ccc2oc(=O)c(-c3ccccc3N)cc2c1
Not Active

Kindly consider the entry below.
// query Assign inhibition (INH) to the following record: Cc1ccc2oc(=O)c(-c3cccc([N+](=O)[O-])c3)cc2c1
// result Not Active

----------
- Study Target: Amine oxidase [flavin-containing] B (Homo sapiens, UniProt P27338)
- Sequence (P27338 whole entry): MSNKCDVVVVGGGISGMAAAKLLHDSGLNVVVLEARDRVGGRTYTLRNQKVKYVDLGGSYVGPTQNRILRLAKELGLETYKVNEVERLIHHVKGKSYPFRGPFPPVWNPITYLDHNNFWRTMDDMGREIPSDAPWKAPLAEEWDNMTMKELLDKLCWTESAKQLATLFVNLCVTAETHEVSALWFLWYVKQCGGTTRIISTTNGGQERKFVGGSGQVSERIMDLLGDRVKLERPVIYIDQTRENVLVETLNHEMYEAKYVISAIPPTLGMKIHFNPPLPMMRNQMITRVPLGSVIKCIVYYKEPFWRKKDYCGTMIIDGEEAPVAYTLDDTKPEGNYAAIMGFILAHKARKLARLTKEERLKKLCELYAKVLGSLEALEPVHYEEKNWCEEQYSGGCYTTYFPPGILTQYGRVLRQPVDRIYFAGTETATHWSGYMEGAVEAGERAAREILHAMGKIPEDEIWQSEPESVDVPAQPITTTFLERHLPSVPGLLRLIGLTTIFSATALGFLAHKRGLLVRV
- Type: cell-based, BTI-TN-5B1-4
- Applied Conditions: read-out: IC50
- Description: Inhibition of human recombinant MAOB expressed in BTI-TN-5B1-4 cells using p-tyramine substrate assessed as reduction in H2O2 production
Kindly state IC50 for each of the entries shown.
Give bare numbers, in nM.

I'm hoping you can list IC50 for every molecule here, please.
1. Cc1ccc2oc(=O)c(-c3cccc([N+](=O)[O-])c3)cc2c1
2. Cc1ccc2oc(=O)c(-c3ccccc3[N+](=O)[O-])cc2c1
3. Cc1ccc2oc(=O)c(-c3ccc(N)cc3)cc2c1
4. Cc1ccc2oc(=O)c(-c3cccc(N)c3)cc2c1

// result
[6, 5520, 4.1, 2.2]

I'm hoping you can list IC50 for every molecule here, please.
1. Cc1ccc2oc(=O)c(-c3ccccc3N)cc2c1
2. Cc1ccc2oc(=O)c(-c3ccc([N+](=O)[O-])cc3)cc2c1

// result
1: 2170; 2: 2.1
